system: glycogen synthase; assay: Glycogen Synthase (GS) Assay; assay type: biochemical; conditions: compound concentration needed to give 50% maximum activation
measurementName: EC50 (nM)

lineNotation	endpointUnit	EC50
COc1cc(F)c(F)cc1-c1ccc(OCc2cccc3c(N(C)CC(=O)O)noc23)cc1	nM	4220
Cc1cc(F)c(F)cc1-c1ccc(OCc2cccc3c(O)noc23)cc1	nM	792

P. CCN(CC(=O)O)c1noc2ccc(COc3ccc(-c4cc(F)c(F)cc4OC)cc3)cc12
Q. CNc1noc2ccc(COc3ccc(-c4cc(F)c(F)cc4OC)cc3)cc12
P or Q : whose EC50 is greater? Your answer should be the label of the entry you select.
Q
